# System: 966289-007-R4-J1-PDC complex spheroid viability
# assay_protocol: Anticancer human tumor 966289-007-R4-J1-PDC patient-derived pancreatic adenocarcinoma cell line growth inhibition [RAS]
# setup_conditions: curve of first compound; second compound 0.03 µM
observed_property: IC50

Q: Suppose we examine the molecule CC1(C)CCC(Nc2ncc(C(F)(F)F)c(-c3c[nH]c4c(P(C)(C)=O)c(C#N)ccc34)n2)CN1 (stereo not drawn) + CCn1c(-c2cccnc2C(C)OC)c2c3cc(ccc31)N1CCOC(CC(NC(=O)C(C(C)C)N(C)C(=O)C3(F)CCN(C(=O)C#CC(C)(C)N(C)C)CC3)C(=O)N3CCCC(N3)C(=O)OCC(C)(C)C2)C1 ; what IC50 value has been reported?
A: 3.82 nM

Q: Suppose we examine the molecule C=CC(=O)Nc1cc(Nc2nccc(-c3cn(C)c4ccccc34)n2)c(OC)cc1N(C)CCN(C)C + CCn1c(-c2cccnc2C(C)OC)c2c3cc(ccc31)N1CCOC(CC(NC(=O)C(C(C)C)N(C)C(=O)C3(F)CCN(C(=O)C#CC(C)(C)N(C)C)CC3)C(=O)N3CCCC(N3)C(=O)OCC(C)(C)C2)C1 ; what IC50 value has been reported?
A: > 1000 nM

Q: Suppose we examine the molecule Cc1nc(N2CCC3(CC2)COC(C)C3N)c(CO)nc1Sc1ccnc(N)c1Cl (stereo not drawn) + CCn1c(-c2cc(N3CCN(C)CC3)cnc2C(C)OC)c2c3cc(ccc31)-c1csc(n1)CC(NC(=O)C1CC1C)C(=O)N1CCCC(N1)C(=O)OCC(C)(C)C2 ; what IC50 value has been reported?
A: > 10000 nM

Q: Suppose we examine the molecule Cc1nc(N2CCC3(CC2)COC(C)C3N)c(CO)nc1Sc1ccnc(N)c1Cl (stereo not drawn) + CCn1c(-c2cccnc2C(C)OC)c2c3cc(ccc31)N1CCOC(CC(NC(=O)C(C(C)C)N(C)C(=O)C3(F)CCN(C(=O)C#CC(C)(C)N(C)C)CC3)C(=O)N3CCCC(N3)C(=O)OCC(C)(C)C2)C1 ; what IC50 value has been reported?
A: > 10000 nM

Q: Suppose we examine the molecule NC1c2ccccc2OC12CCN(c1cnc3c(N4CCCc5ncccc54)n[nH]c3n1)CC2 (stereo not drawn) + CCn1c(-c2cc(N3CCN(C)CC3)cnc2C(C)OC)c2c3cc(ccc31)-c1csc(n1)CC(NC(=O)C1CC1C)C(=O)N1CCCC(N1)C(=O)OCC(C)(C)C2 ; what IC50 value has been reported?
A: > 10000 nM

Q: Suppose we examine the molecule O=C(c1ccc(F)c(F)c1Nc1ccc(I)cc1F)N1CC(O)([C@@H]2CCCCN2)C1 + CCn1c(-c2cccnc2C(C)OC)c2c3cc(ccc31)N1CCOC(CC(NC(=O)C(C(C)C)N(C)C(=O)C3(F)CCN(C(=O)C#CC(C)(C)N(C)C)CC3)C(=O)N3CCCC(N3)C(=O)OCC(C)(C)C2)C1 ; what IC50 value has been reported?
A: 848 nM

Q: Suppose we examine the molecule NC1c2ccccc2OC12CCN(c1cnc3c(N4CCCc5ncccc54)n[nH]c3n1)CC2 (stereo not drawn) + CCn1c(-c2cccnc2C(C)OC)c2c3cc(ccc31)N1CCOC(CC(NC(=O)C(C(C)C)N(C)C(=O)C3(F)CCN(C(=O)C#CC(C)(C)N(C)C)CC3)C(=O)N3CCCC(N3)C(=O)OCC(C)(C)C2)C1 ; what IC50 value has been reported?
A: > 10000 nM

Q: Suppose we examine the molecule C=CC(=O)Nc1cc(Nc2nccc(-c3cn(C)c4ccccc34)n2)c(OC)cc1N(C)CCN(C)C + CCn1c(-c2cc(N3CCN(C)CC3)cnc2C(C)OC)c2c3cc(ccc31)-c1csc(n1)CC(NC(=O)C1CC1C)C(=O)N1CCCC(N1)C(=O)OCC(C)(C)C2 ; what IC50 value has been reported?
A: > 1000 nM

* * *

# Test system: 966289-007-R4-J1-PDC complex spheroid viability
# assay_protocol: Anticancer human tumor 966289-007-R4-J1-PDC cell line growth inhibition [RAS];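 note: spheroids exposed to agents for one week before readout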;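 for viability, T/C: percent viability relative to DMSO vehicle control wells as 100%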
# setup_conditions: second compound 0.0316 µM; first compound 0.1 µM; stronger effect = lower value
observed_property: viability, T/C

Q: Suppose we examine the molecule CCN1CCN(Cc2ccc(Nc3ncc(F)c(-c4cc(F)c5nc(C)n(C(C)C)c5c4)n3)nc2)CC1 + C=CC(=O)N1CCN(c2nc(OCC3CCCN3C)nc3c(F)c(-c4nc(N)cc(C)c4C(F)(F)F)c(Cl)cc23)C(C)C1 ; what viability, T/C value has been reported?
A: 113%

Q: Suppose we examine the molecule CC(C)NCC(C(=O)N1CCN(c2ncnc3c2C(C)CC3O)CC1)c1ccc(Cl)cc1 (stereo not given) + C#Cc1c(F)ccc2cc(O)cc(-c3ncc4c(N5CC6CCC(C5)N6)nc(OCC56CCCN5CC(F)C6)nc4c3F)c12 ; what viability, T/C value has been reported?
A: 111%

Q: Suppose we examine the molecule C[C@@H](NC(=O)c1ncnc(N)c1Cl)c1ncc(C(=O)Nc2cc(C(F)(F)F)c(Cl)cn2)s1 + C#Cc1c(F)ccc2cc(O)cc(-c3ncc4c(N5CC6CCC(C5)N6)nc(OCC56CCCN5CC(F)C6)nc4c3F)c12 ; what viability, T/C value has been reported?
A: 118%

Q: Suppose we examine the molecule Cc1nc(N2CCC3(CC2)COC(C)C3N)c(CO)nc1Sc1ccnc(N)c1Cl (stereo not given) + C#Cc1c(F)ccc2cc(O)cc(-c3ncc4c(N5CC6CCC(C5)N6)nc(OCC56CCCN5CC(F)C6)nc4c3F)c12 ; what viability, T/C value has been reported?
A: 92.5%

Q: Suppose we examine the molecule CC1(O)CCCC1n1c(=O)c(C(F)F)cc2cnc(NC3CCN(S(C)(=O)=O)CC3)nc21 (stereo not given) + C#Cc1c(F)ccc2cc(O)cc(-c3ncc4c(N5CC6CCC(C5)N6)nc(OCC56CCCN5CC(F)C6)nc4c3F)c12 ; what viability, T/C value has been reported?
A: 57%

* * *

# Test system: 966289-007-R4-J1-PDC complex spheroid viability
# assay_protocol: Anticancer human tumor 966289-007-R4-J1-PDC cell line growth inhibition [RAS];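 note: spheroids exposed to agents for one week before readout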;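 for viability, T/C: percent viability relative to DMSO vehicle control wells as 100%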
# setup_conditions: second compound 0.01 µM; first compound 0.01 µM; stronger effect = lower value
Rule: viability, T/C below 90% gives YES. Equal to or above 90% gives NO.

Q: # TODO verify viability, T/C < 90% strictly for this molecule: CC(C)n1nc(-c2ccc3oc(N)nc3c2)c2c(N)ncnc21 + C=CC(=O)N1CCN(c2nc(OCC3CCCN3C)nc3c(F)c(-c4nc(N)cc(C)c4C(F)(F)F)c(Cl)cc23)C(C)C1
A: NO

Q: # TODO verify viability, T/C < 90% strictly for this molecule: O=C(c1ccc(F)c(F)c1Nc1ccc(I)cc1F)N1CC(O)([C@@H]2CCCCN2)C1 + C=CC(=O)N1CCN(c2nc(OCC3CCCN3C)nc3c(F)c(-c4nc(N)cc(C)c4C(F)(F)F)c(Cl)cc23)C(C)C1
A: YES

Q: # TODO verify viability, T/C < 90% strictly for this molecule: Nc1ccn(C2OC(CO)C(O)C2(F)F)c(=O)n1 (stereo not given) + C=CC(=O)N1CCN(c2nc(OCC3CCCN3C)nc3c(F)c(-c4nc(N)cc(C)c4C(F)(F)F)c(Cl)cc23)C(C)C1
A: YES

Q: # TODO verify viability, T/C < 90% strictly for this molecule: CCN1CCN(Cc2ccc(Nc3ncc(F)c(-c4cc(F)c5nc(C)n(C(C)C)c5c4)n3)nc2)CC1 + C=CC(=O)N1CCN(c2nc(OCC3CCCN3C)nc3c(F)c(-c4nc(N)cc(C)c4C(F)(F)F)c(Cl)cc23)C(C)C1
A: NO

Q: # TODO verify viability, T/C < 90% strictly for this molecule: C=CC(=O)Nc1cc(Nc2nccc(-c3cn(C)c4ccccc34)n2)c(OC)cc1N(C)CCN(C)C + C=CC(=O)N1CCN(c2nc(OCC3CCCN3C)nc3c(F)c(-c4nc(N)cc(C)c4C(F)(F)F)c(Cl)cc23)C(C)C1
A: NO

* * *

Record form. Attribute: viability, T/C. Fill in for each entry.
# Tested on: 966289-007-R4-J1-PDC complex spheroid viability
# assay_protocol: Anticancer human tumor 966289-007-R4-J1-PDC cell line growth inhibition [RAS];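 note: spheroids exposed to agents for one week before readout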;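 for viability, T/C: percent viability relative to DMSO vehicle control wells as 100%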
# setup_conditions: second compound 0.0949 µM; first compound 1 µM; stronger effect = lower value
# Source text: RAS pathway inhibitors in Combinations in Complex Spheroids A high-throughput screen of multi-cell type tumor spheroids was designed to identify active combinations of RAS pathway inhibitors and targeted small molecules. Complex spheroids include a stromal component modeled by human endothelial cells (HUVEC) and fibroblasts modeled by human mesenchymal stem cells (MSCs). […] Compounds. […] If the clinical Cmax for an agent had not been determined, the highest concentration tested was 10 microM. […]
Give just the numeric value; % need not be written.

Q: // map CC(=O)OC12COC1CC(O)C1(C)C(=O)C(O)C3=C(C)C(OC(=O)C(O)C(NC(=O)OC(C)(C)C)c4ccccc4)CC(O)(C(OC(=O)c4ccccc4)C21)C3(C)C (configuration not stated) + CCn1c(-c2cccnc2C(C)OC)c2c3cc(ccc31)N1CCOC(CC(NC(=O)C(C(C)C)N(C)C(=O)C3(F)CCN(C(=O)C#CC(C)(C)N(C)C)CC3)C(=O)N3CCCC(N3)C(=O)OCC(C)(C)C2)C1 to recorded viability, T/C (system: 966289-007-R4-J1-PDC complex spheroid viability)
A: 4.99

Q: // map O=C(c1ccc(F)c(F)c1Nc1ccc(I)cc1F)N1CC(O)([C@@H]2CCCCN2)C1 + CCn1c(-c2cccnc2C(C)OC)c2c3cc(ccc31)N1CCOC(CC(NC(=O)C(C(C)C)N(C)C(=O)C3(F)CCN(C(=O)C#CC(C)(C)N(C)C)CC3)C(=O)N3CCCC(N3)C(=O)OCC(C)(C)C2)C1 to recorded viability, T/C (system: 966289-007-R4-J1-PDC complex spheroid viability)
A: 56

Q: // map CCN1CCN(Cc2ccc(Nc3ncc(F)c(-c4cc(F)c5nc(C)n(C(C)C)c5c4)n3)nc2)CC1 + CCn1c(-c2cccnc2C(C)OC)c2c3cc(ccc31)N1CCOC(CC(NC(=O)C(C(C)C)N(C)C(=O)C3(F)CCN(C(=O)C#CC(C)(C)N(C)C)CC3)C(=O)N3CCCC(N3)C(=O)OCC(C)(C)C2)C1 to recorded viability, T/C (system: 966289-007-R4-J1-PDC complex spheroid viability)
A: 79.9

Q: // map CC1(O)CCCC1n1c(=O)c(C(F)F)cc2cnc(NC3CCN(S(C)(=O)=O)CC3)nc21 (configuration not stated) + CCn1c(-c2cc(N3CCN(C)CC3)cnc2C(C)OC)c2c3cc(ccc31)-c1csc(n1)CC(NC(=O)C1CC1C)C(=O)N1CCCC(N1)C(=O)OCC(C)(C)C2 to recorded viability, T/C (system: 966289-007-R4-J1-PDC complex spheroid viability)
A: 27.1

Q: // map C=CC(=O)N1CCN(c2nc(OCC3CCCN3C)nc3c(F)c(-c4nc(N)cc(C)c4C(F)(F)F)c(Cl)cc23)C(C)C1 (configuration not stated) + CCn1c(-c2cccnc2C(C)OC)c2c3cc(ccc31)N1CCOC(CC(NC(=O)C(C(C)C)N(C)C(=O)C3(F)CCN(C(=O)C#CC(C)(C)N(C)C)CC3)C(=O)N3CCCC(N3)C(=O)OCC(C)(C)C2)C1 to recorded viability, T/C (system: 966289-007-R4-J1-PDC complex spheroid viability)
A: 93.4

Q: // map CC(Nc1ccc2c(c1)OCCn1cc(N3C(=O)OCC3C(F)F)nc1-2)C(N)=O (configuration not stated) + CCn1c(-c2cccnc2C(C)OC)c2c3cc(ccc31)N1CCOC(CC(NC(=O)C(C(C)C)N(C)C(=O)C3(F)CCN(C(=O)C#CC(C)(C)N(C)C)CC3)C(=O)N3CCCC(N3)C(=O)OCC(C)(C)C2)C1 to recorded viability, T/C (system: 966289-007-R4-J1-PDC complex spheroid viability)
A: 108

Q: // map CC1(O)CCCC1n1c(=O)c(C(F)F)cc2cnc(NC3CCN(S(C)(=O)=O)CC3)nc21 (configuration not stated) + CCn1c(-c2cccnc2C(C)OC)c2c3cc(ccc31)N1CCOC(CC(NC(=O)C(C(C)C)N(C)C(=O)C3(F)CCN(C(=O)C#CC(C)(C)N(C)C)CC3)C(=O)N3CCCC(N3)C(=O)OCC(C)(C)C2)C1 to recorded viability, T/C (system: 966289-007-R4-J1-PDC complex spheroid viability)
A: 21.4
